target: Metabotropic glutamate receptor 8 (Rattus norvegicus); experiment: mGluR8 Gi/Go-coupled signaling modulation – cell-based, rat, thallium flux, HTS, primary screen (AID 488969); conditions: HEK293 rat mGluR8, GIRK (G protein-gated inwardly rectifying potassium channel) thallium flux, FluoZin2; at 10 µM; stronger effect = higher value; submaximal glutamate (EC20) added with thallium
The full ranking holds about 110,000 compounds; the median of “z-score” is about -0.1, and the highest 2% start at about 2. Many of the other results were omitted from the sample, so the highest values are more common in it than they were.
Quick rule: z-score of at least -0.1 means 1, below that means 0.

Example entries begin here.
compound | class name
O=C(c1ccc(-c2ccccc2)cc1)N1CCN(c2ncccn2)CC1 | 1
O=C(Nc1cccc(NC(=O)c2cccs2)c1)c1ccco1 | 0
Cc1ccc(-c2cc(C(=O)N/N=C/C=C/c3ccco3)c3ccccc3n2)cc1C | 1
O=C(c1cccc(C(=O)N2CCN(c3ncccn3)CC2)c1)N1CCN(c2ncccn2)CC1 | 1
COc1ccc(C(=O)c2c(C)c3cc(C)ccc3n2CC(O)CN2CCOCC2)cc1 (configuration not stated) | 0

Q: Decide: z-score of `Cc1cc(C(=O)CSc2n[nH]c(N)n2)c(C)n1-c1cccc(F)c1` >= -0.1?
Result: 0

Q: Decide: z-score of `Cc1cc(C(=O)CSc2n[nH]c(N)n2)c(C)n1-c1ccc(F)cc1` >= -0.1?
Result: 0

Value source: PubChem BioAssay AID488969
